meta.source: PubChem BioAssay (NCI)

Tested on: COLO 205 colon
Assay summary: NCI tumour cell line growth inhibition, 48 h
Measurement kind: TGI

(Q) Item "CCOc1ccc2c(c1)[n+]([O-])c(S(=O)(=O)c1ccc(C)cc1)c(N)[n+]2[O-]" has what recorded TGI?
(A) > 100 µM

(Q) // same read-out, input: "CCOP(=O)(OCC)/C(C#N)=C/c1cnc(-c2ccccc2)[nH]1"
(A) > 100 µM

(Q) Can you check "Cc1nnc(Nc2ccccc2)o1" next?
(A) > 100 µM

====

System: EKVX NSCLC
Assay summary: NCI tumour cell line growth inhibition, 48 h
Measurement kind: TGI

(Q) Request body: readout TGI, system EKVX NSCLC, query "CCOC(=O)CCc1cc(=O)oc2cc(O)cc(O)c12" . Return the value.
(A) > 100 µM

(Q) # repeat for COC(=O)C(=O)C(C(=O)C=C(C)C)C(=O)C(=O)Nc1cc(C(F)(F)F)ccc1Cl (configuration not stated)
(A) > 100 µM

(Q) Again, but for CSc1ccc(C2=NN(C(C)=O)C(c3cc(C)cs3)C2)cc1 (configuration not stated)
(A) > 100 µM

(Q) Also COc1cc(C2c3cc4c(cc3C(NCC(O)CO)C3COC(=O)[C@H]23)OCO4)cc(OC)c1OC (some centres not stated) , if possible.
(A) > 100 µM

(Q) Also need COc1ccc(OC)c(NC(=O)C(=O)C(C(C)=O)c2nc3ccc(Cl)cc3[nH]c2=O)c1 (configuration not stated) , thanks.
(A) > 50 µM

(Q) Okay, and "C=C(C(=O)C(=O)Oc1ccc(Cl)cc1)C(=O)c1ccc(C)cc1" ?
(A) > 100 µM

(Q) Similarly, "C=C(CN1CCc2ccccc2C1)c1ccc(C(=O)Nc2cnccn2)cc1" ?
(A) > 100 µM

(Q) Try O=C1C=CC(=Nc2ccc3c(c2)C(Br)c2ccccc2-3)O1 (configuration not stated) next.
(A) > 100 µM

(Q) Now try "C[C@]12CC[C@H](O)CC1=CC[C@@H]1[C@@H]2CC[C@]2(C)C(c3cccnc3)=CC[C@@H]12" .
(A) > 100 µM

(Q) What would you report for CCOC(=O)CNC(=O)C(CSCc1ccc(Br)cc1)NC(=O)CCC(N)C(=O)OCC (configuration not stated) ?
(A) > 50 µM

(Q) Another molecule to look at: "COc1cccc(/C=N/NC(=O)c2ccccc2Nc2ccnc(C(F)(F)F)c2)c1O"
(A) > 100 µM

(Q) Try "C[C@]12CC[C@@H]3c4ccc(O)cc4CC[C@H]3[C@@H]1C/C(=C\c1ccncc1)C2=O" next.
(A) > 100 µM

====

Tested on: SK-MEL-28 melanoma
Assay summary: NCI tumour cell line growth inhibition, 48 h
Measurement kind: TGI (µM)
Give the value, in units of µM, as a plain number.

(Q) For the record "OCCCCCNc1c2ccccc2nc2ccccc12" , what value of TGI is listed for SK-MEL-28 melanoma?
(A) 16.9

(Q) Note, next up: CC(CN1c2ccccc2Sc2ccccc21)N(C)C (configuration not stated)
(A) 32.5

(Q) Here is the next compound: "Cc1cc(I)cc(CNCCCN2CCSCC2)c1O"
(A) 32.4

(Q) Would you kindly repeat that for CCOC(=O)C1Cc2[nH]c3ccccc3c2C(C)C1C (configuration not stated) ?
(A) 33.7

(Q) Next up: "CSc1cc(N=Nc2nc3ccccc3s2)c2ccccc2c1O"
(A) 18.6

====

Please go through the items and note down their TGI.
Tested on: SNB-75 CNS
Assay summary: NCI tumour cell line growth inhibition, 48 h
Answer in µM, number only, no unit symbol.

(Q) Returns the measured TGI for the input compound. Input: "O=C1/C(=C/c2ccc(Br)cc2)C=C(c2ccccc2)N1CCc1ccccc1"
(A) 3.83

(Q) Proceed to "CCOC(=O)c1csc(NC(=O)CCN(CC)CC)n1"
(A) 73.5

(Q) Could you do the same for "O=C(NNC(=S)Nc1ccc(Cl)cc1)c1cc(-c2ccccc2)nc2ccccc12" , please?
(A) 39.8

(Q) For "Cc1nc(-c2ccc([N+](=O)[O-])cc2)cn2c1nc1ccccc12" then?
(A) 69

(Q) Repeat for the following compound: "Cn1cc(-c2cnc3ccc(NC(=O)Nc4ccc(F)c(Br)c4)cc3n2)cn1"
(A) 4.8

(Q) Then this compound: "O=C(Nc1ccc(N2CCNCC2)cc1)c1[nH]ncc1Nc1cc(Oc2ccccc2)ncn1"
(A) 5.6

(Q) Note, next up: COc1ccc(-c2cc(-c3ccco3)c(C#N)c(=S)n2C2OC(COC(C)=O)C(OC(C)=O)C(OC(C)=O)C2OC(C)=O)cc1 (stereo not given)
(A) 17.7

(Q) Also need "CN1CCN(Cc2ccc(NC(=O)c3cncc(C#Cc4cnc(N)c5ccc(C#N)cc45)c3)cc2C(F)(F)F)CC1" , thanks.
(A) 0.876

(Q) Record: COc1ccc(C2CC(c3c(O)ccc4ccccc34)=NN2c2ccc([N+](=O)[O-])cc2[N+](=O)[O-])cc1OC (stereo not given)
(A) 70.8

====

Test system: HOP-62 NSCLC
Assay summary: NCI tumour cell line growth inhibition, 48 h
Please go through the items and note down their TGI.

(Q) TGI for "Cc1ccc(-c2c(C#N)c(-c3ccccc3)n(NS(=O)(=O)c3ccccc3)c(=O)c2C#N)cc1" ?
(A) > 100 µM

(Q) Now the same for "COC(=O)CC(=O)C[P+](c1ccccc1)(c1ccccc1)c1ccccc1"
(A) > 218 µM

(Q) Proceed to "CCOc1ccc2c(c1)[n+]([O-])c(S(=O)(=O)c1ccc(C)cc1)c(N)[n+]2[O-]"
(A) > 100 µM

(Q) Follow-up item: "O=C(O)CSc1nnc(COc2ccc(Cl)cc2)n1-c1ccccc1"
(A) > 100 µM

(Q) What would you report for "CCOC(=O)c1csc(NC(=O)CCN(CC)CC)n1" ?
(A) > 100 µM

====

Please respond with reported TGI for every item in the list.
Test system: SN12C renal
Assay summary: NCI tumour cell line growth inhibition, 48 h

(Q) # lookup: TGI of "COc1cccc(/C=N/NC(=O)c2ccccc2Nc2ccnc(C(F)(F)F)c2)c1O"
(A) > 73.7 µM

(Q) Let us now turn to "Cc1nc2cccc([N+](=O)[O-])c2c(NCCCN(C)C)c1C"
(A) 16.1 µM

(Q) Another: "O=C(c1ccco1)c1nc2ccc(C(F)(F)F)cc2[n+]([O-])c1C(F)(F)F"
(A) > 100 µM

(Q) Quick one: CSc1ccc(C2=NN(C(C)=O)C(c3cc(C)cs3)C2)cc1 (stereo not drawn)
(A) > 100 µM

(Q) Now give it for COCOC1/C=C/CCCCC2=C(C)C=C(C1)O2 (stereo not drawn) too.
(A) > 100 µM

(Q) And for Cn1c(N2NC(=O)C(N=Nc3ccc(S(N)(=O)=O)cc3)C2=O)nc(-c2ccco2)c(C#N)c1=O (stereo not drawn) ?
(A) > 50 µM

(Q) What do you have for "COc1ccc2[nH]c3c(C)c4c(c(C)c3c2c1)CN(C)CC4" ?
(A) 30.6 µM

(Q) Next entry: CN(C)CCCOc1nc2c(c(=O)n(C)c(=O)n2C)n1C (tested in a mixture with another compound)
(A) 30.1 µM

(Q) Entry "CC(C)=CCOC(=O)C(C)=[N+]=[N-]" please
(A) > 100 µM

(Q) Next: "Cn1cc(-c2cnc3ccc(NC(=O)Nc4ccc(F)c(Br)c4)cc3n2)cn1"
(A) 4.79 µM

(Q) CC1OC(O[C@H]2C[C@@H](O)[C@]3(CO)[C@H]4[C@H](O)C[C@]5(C)[C@@H](C6=CC(=O)OC6)CC[C@]5(O)[C@@H]4CC[C@]3(O)C2)C(O)C(O)C1O (stereo partly drawn) , same question.
(A) 40.6 µM

(Q) What would you report for CCCCCCCCCCCCCC(=O)OC1CC(=O)OC1CO (stereo not drawn) ?
(A) > 100 µM

(Q) Repeat for the following compound: COc1ccc2ccc3c(c2c1)CN1CCc2cc(OC)c(OC)cc2C1C3 (stereo not drawn)
(A) > 100 µM

(Q) Would you kindly repeat that for "COc1ccccc1Nc1nc(N)nc(N)c1N=O" ?
(A) > 100 µM

(Q) Proceed to "COc1ccc(CNc2cc(OC)c(OC)c(OC)c2)cc1"
(A) > 100 µM

(Q) Same for COc1ccc(C(C#N)NNC(=O)c2ccccc2O)cc1OC (stereo not drawn)
(A) > 100 µM

(Q) Request: "COc1ccc2[nH]c(O)c(/C=c3/cc4c(c(-c5cc(OC)c(OC)c(OC)c5)n3)=Nc3ccccc3-4)c2c1"
(A) > 100 µM

(Q) Check "C#CCCCCC#Cc1ccccc1C(=O)OC" too.
(A) > 100 µM

(Q) Do the same for COC(=O)C(=O)C(C(=O)C=C(C)C)C(=O)C(=O)Nc1cc(C(F)(F)F)ccc1Cl (stereo not drawn) please
(A) > 100 µM

(Q) Would you mind doing "CC(C)CC(=O)[O-].CC(C)CC(=O)[O-].N.N.N.N.[Co+3].[O-][Cl+3]([O-])([O-])[O-]" as well?
(A) > 100 µM

(Q) What about this compound? "O=C(O)CC/C(=N\Nc1nsc2ccccc12)c1ccccc1"
(A) > 100 µM

(Q) How about this compound: "CN1CCN(Cc2ccc(NC(=O)c3cncc(C#Cc4cnc(N)c5ccc(C#N)cc45)c3)cc2C(F)(F)F)CC1"
(A) 0.611 µM

(Q) Next record, please: "O=C(Nc1ccc(N2CCNCC2)cc1)c1[nH]ncc1Nc1cc(Oc2ccccc2)ncn1"
(A) 9.31 µM
